- Tested on: Respiratory Syncytial Virus
- Test Protocol: In vitro screening for activity against RSV (tetrazolium-based colorimetric assay, protection against viral cytopathology)
- Type: cell-based
- Measurement Parameters: Table 1; RSV in HeLa cells, MTT, seven days after infection; pEC50 = -log of EC50 in molar units
// label = 1 (yes) if Activity is not less than 8, otherwise 0 (no)

Structure Smiles String: COc1cc(NCc2ccc3nc(N)n(Cc4nc(C)ccc4O)c3c2)cc(C(F)(F)F)c1
Assigned Category: 0 (no)

Structure Smiles String: CCOC(=O)c1ccc(NCc2ccc3nc(N)n(Cc4nc(C)ccc4O)c3c2)c(O)c1
Assigned Category: 1 (yes)

Structure Smiles String: Cc1ccc(NCc2ccc3nc(N)n(Cc4nc(C)ccc4O)c3c2)cc1
Assigned Category: 0 (no)

Structure Smiles String: CC(=O)Nc1cccc(NCc2ccc3nc(N)n(Cc4nc(C)ccc4O)c3c2)c1
Assigned Category: 0 (no)
